Test system: OVCAR-3 ovarian
experimental_protocol: NCI tumour cell line growth inhibition, 48 h
Measured TGI accompanies every entry in the list below.

[[record]]
compound = "c1ccc(-c2nnc(SCc3c[nH]c4ccccc34)n2-c2ccccc2)cc1"
experimental_target = "OVCAR-3 ovarian"
measured_metric = "TGI"
result = "> 100 µM"

[[record]]
compound = "CN1CC[C@]2(c3cccc(O)c3)CC(=O)/C(=C/c3ccccc3)[C@H]1C2"
experimental_target = "OVCAR-3 ovarian"
measured_metric = "TGI"
result = "6.95 µM"

[[record]]
compound = "O=C(NNC(=S)Nc1ccc(Br)cc1)c1cc(-c2ccccc2)nc2ccccc12"
experimental_target = "OVCAR-3 ovarian"
measured_metric = "TGI"
result = "33.1 µM"

[[record]]
compound = "C/C(=N\\NC(=S)N1CCN(C2CCCCCC2)CC1)c1ccccn1"
experimental_target = "OVCAR-3 ovarian"
measured_metric = "TGI"
result = "1.74 µM"

[[record]]
compound = "Cc1ccc(Nc2[nH]c(=O)[nH]c(=O)c2C)cc1Cl"
experimental_target = "OVCAR-3 ovarian"
measured_metric = "TGI"
result = "> 100 µM"

[[record]]
compound = "Cn1c(=O)c2ccc(-c3ccc(Br)cc3)nc2n(C)c1=O"
experimental_target = "OVCAR-3 ovarian"
measured_metric = "TGI"
result = "> 100 µM"

[[record]]
compound = "CSc1nc2c(nc(N)n2C2OC(COC(C)=O)C(OC(C)=O)C(OC(C)=O)C2OC(C)=O)c(=O)n1C (centres undefined)"
experimental_target = "OVCAR-3 ovarian"
measured_metric = "TGI"
result = "> 100 µM"

[[record]]
compound = "N#CCCN(CCC#N)c1ccc(C(N=Nc2ccccc2)=Nc2ccc(Cl)cc2)cc1"
experimental_target = "OVCAR-3 ovarian"
measured_metric = "TGI"
result = "> 100 µM"


**Query** Return reported TGI; argument: CSc1c(C(=O)Nc2ccc(C)cc2)c(N)n(N)c(=O)c1C#N
**Result** > 100 µM

**Query** Return reported TGI; argument: O=C(N=Nc1c(O)[nH]c2ccccc12)c1oc2ccccc2c1CN1CCN(c2ccccc2)CC1
**Result** 1.94 µM

**Query** Return reported TGI; argument: CN(C)CCC(CCN(C)C)=NOC(=O)c1ccccc1
**Result** > 100 µM

**Query** Return reported TGI; argument: CC1=C(C(=O)Nc2ccc3[nH]ncc3c2)C(c2ccc(Cl)c(Cl)c2)CC(=O)N1 (centres undefined)
**Result** > 25 µM

**Query** Return reported TGI; argument: CCOC(=O)/C(C#N)=C1/Sc2c(ncn(/N=C/c3ccc(OC)cc3)c2=O)N1c1ccccc1
**Result** > 100 µM

---

Tested on: UO-31 renal
experimental_protocol: NCI tumour cell line growth inhibition, 48 h; in the data active = GI50 below about 0.43 µM; inactive = the rest
Hi! Could you answer with just one of these? active, inactive

Solved entries:
[[record]]
compound = "C1COCCOCCOCCOCCOCCO1.[Cl][Sn]([Cl])([c]1ccccc1)[c]1ccccc1"
label_value = "inactive"

[[record]]
compound = "C=C(C)C1CC=C(C)CC1 (centres undefined)"
label_value = "inactive"

[[record]]
compound = "CNc1cc2nc3cc(NC)c(C)cc3cc2cc1C"
label_value = "active"


--- query ---
**Query** I would be grateful if you could indicate the recorded call for O=c1c2c(c3ccccc3n1-c1ccccc1)NC(=S)NC2c1ccc(Cl)cc1 (centres undefined) .
**Result** inactive

---

Test system: HOP-62 NSCLC
experimental_protocol: NCI tumour cell line growth inhibition, 48 h
Measured TGI accompanies every entry in the list below.

Use the examples below as a reference point.
[[record]]
molecule = "Cc1ccc(C2N=C(N)NC3=C2CCOc2c3ccc3ccccc23)cc1 (stereo unspecified)"
experimental_target = "HOP-62 NSCLC"
result = "35.1 µM"

[[record]]
molecule = "CC(=O)O[C@H]1C=CC(=O)C(C)CC1C (stereo partly specified)"
experimental_target = "HOP-62 NSCLC"
result = "> 100 µM"

[[record]]
molecule = "C=C1CC[C@@H]2[C@](C)(COC(C)=O)[C@H](OC(C)=O)CC[C@@]2(C)[C@@H]1CC(Nc1ccc(S(=O)(=O)Nc2cc(C)on2)cc1)C1=CCOC1=O (stereo partly specified)"
experimental_target = "HOP-62 NSCLC"
result = "22.9 µM"

[[record]]
molecule = "CN(C)CCC(CCN(C)C)=NOC(=O)c1ccccc1"
experimental_target = "HOP-62 NSCLC"
result = "> 100 µM"

[[record]]
molecule = "O=c1oc2ccccc2c(O)c1/C=N/C(=S)NCc1ccccc1"
experimental_target = "HOP-62 NSCLC"
result = "> 100 µM"


**Query** Return reported TGI; argument: Cc1ccc2c(c1)C1C(CO2)C(c2ccccc2)=NN1c1ccccc1 (stereo unspecified)
**Result** > 100 µM

**Query** Return reported TGI; argument: O=C(CC(C(=O)c1cccs1)c1cccs1)c1ccccc1Cl (stereo unspecified)
**Result** > 100 µM

**Query** Return reported TGI; argument: O=C(NNC(=S)Nc1ccc(Br)cc1)c1cc(-c2ccccc2)nc2ccccc12
**Result** 42 µM

**Query** Return reported TGI; argument: CO/C(=C/C(=O)C(Cl)(Cl)Cl)CC/C(=C\C(=O)C(Cl)(Cl)Cl)OC
**Result** 49.5 µM

**Query** Return reported TGI; argument: O=C(COc1ccc(OCC(=O)NNC2=NC(c3cc(F)c(Cl)cc3Cl)CS2)c(Cl)c1)NNC1=NC(c2cc(F)c(Cl)cc2Cl)CS1 (stereo unspecified)
**Result** > 100 µM

**Query** Return reported TGI; argument: c1ccc(N=c2nc(N3CCOCC3)ss2)cc1
**Result** > 100 µM

---

System: ACHN renal
experimental_protocol: NCI tumour cell line growth inhibition, 48 h
measured_metric: TGI

Use the examples below as a reference point.
[[record]]
molecule = "N#CCCN(CCC#N)c1ccc(C(N=Nc2ccccc2)=Nc2ccc(Cl)cc2)cc1"
result = "> 100 µM"

[[record]]
molecule = "COc1cccc(-n2cc(-c3nc(Nc4cc(C)[nH]n4)c4ccccc4n3)nn2)c1"
result = "7.04 µM"

[[record]]
molecule = "CCC(C)[C@H](NC(=O)NC(=O)NC(=O)CI)C(=O)OC (stereo partly specified)"
result = "4.43 µM"

[[record]]
molecule = "COC(=O)C(Cc1ccccc1)NP(=O)(O)OCC1OC(n2cc(I)c(=O)[nH]c2=O)CC1O (stereo unspecified)"
result = "> 100 µM"

[[record]]
molecule = "CC(=O)OC12c3ccccc3-c3ccccc3C1C(C(=O)O)C2(Cl)C(=O)O (stereo unspecified)"
result = "> 10 µM"

[[record]]
molecule = "COc1c2c(cc3c1OCO3)C13C=CC(OC)CC1N(CC3)C2 (stereo unspecified)"
result = "> 100 µM"


**Query** Return reported TGI; argument: c1cc2nnc1SCCCSc1ccc(nn1)SCCCSc1ccc(nn1)SCCCS2
**Result** > 100 µM

**Query** Return reported TGI; argument: CNc1cc2nc3cc(NC)c(C)cc3cc2cc1C
**Result** 20.8 µM

**Query** Return reported TGI; argument: COc1ccc(N2C(=O)c3c(c4[nH]c5ccc(OC)cc5c4c4ccc(C(C)(C)C)cc34)C2=O)cc1
**Result** > 100 µM

**Query** Return reported TGI; argument: O=C(c1ccco1)c1c(C(F)(F)F)nc2ccc(C(F)(F)F)cc2[n+]1[O-]
**Result** 60 µM

**Query** Return reported TGI; argument: Clc1cc2c(nn1)Nc1ccccc1S2
**Result** > 100 µM

**Query** Return reported TGI; argument: Cc1c(-c2ccccc2)c(C#N)c2nnn(C3CCCCC3)c(=O)n12
**Result** > 100 µM

**Query** Return reported TGI; argument: COC(=O)/C=C(/C(=O)OC)c1cc2ccc3c([nH]c4ccccc43)c(C)c-2c1
**Result** > 100 µM

**Query** Return reported TGI; argument: COC(=O)NN1C(C)=C(C(=O)OC)C2(C#N)C(C(=O)OC)=C(C)N(NC(=O)OC)C12N (stereo unspecified)
**Result** > 100 µM

**Query** Return reported TGI; argument: NS(=O)(=O)c1ccc(NCc2cnc3ccccc3n2)cc1
**Result** > 100 µM

**Query** Return reported TGI; argument: COc1cc(/C=C/c2nc(N)nnc2C)cc(OC)c1OC
**Result** > 56.1 µM

**Query** Return reported TGI; argument: S=C(N/N=C/c1ccccn1)Nc1ccc(Cl)cc1
**Result** 1.66 µM

**Query** Return reported TGI; argument: CCOC(=O)CSc1nnc(CSc2nc(-c3ccccc3)c(-c3ccccc3)[nH]2)n1-c1ccccc1
**Result** 35.5 µM

**Query** Return reported TGI; argument: O=C(N=Nc1c(O)[nH]c2ccccc12)c1oc2ccccc2c1CN1CCN(c2ccccc2)CC1
**Result** 2.53 µM

**Query** Return reported TGI; argument: CCCCCCCNC(P(=O)(O)O)P(=O)(O)O
**Result** > 100 µM

**Query** Return reported TGI; argument: CCOC(=O)/C(C#N)=C1/Sc2c(ncn(/N=C/c3ccc(OC)cc3)c2=O)N1c1ccccc1
**Result** > 100 µM

These data points were gathered from PubChem BioAssay (NCI).
